What normalized growth was measured for each of the following?
assay.details: chemical genetic growth profiling, strain panel (AID 1159580);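 further: tested at 20 µM; growth read once vehicle control cultures reached saturation at 30 °C; 1 = growth at the plate median or of vehicle wells; lower values mean less growth of the strain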
recorded.conditions: S. cerevisiae deletion strains, growth OD, locus YNL067W, strain RPL9B, stronger effect = lower value
Hit rate of the full screen: of about 5,500 compounds, about 2,000 (36%) were called active. Not shown: some 18% with an inconclusive outcome. Some of the results follow.

Q: Query normalized growth for CC[C@@]1(O)C(=O)OCc2c1cc1n(c2=O)Cc2cc3cc(O)ccc3nc2-1
Ans: 1.01 (inactive)

Q: Query normalized growth for CC(=O)O[C@@H]1CC2C(C)(C)CCC[C@]2(C)C2CC[C@]3(C)C(=CC(=O)O[C@H]3c3ccoc3)[C@@]21C (stereo not given in full)
Ans: 1.01 (inactive)

Q: Query normalized growth for NC(=O)c1ccccc1O
Ans: 0.99 (inactive)

Q: Query normalized growth for CC[C@H]1CN2CCC1C[C@@H]2[C@@H](O)c1ccnc2ccc(OC)cc12 (stereo not given in full)
Ans: 1.01 (inactive)

Q: Query normalized growth for O=C(O)c1ccccc1O
Ans: 0.998 (inactive)

###

assay.details: chemical genetic growth profiling, strain panel (AID 1159580);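 further: tested at 20 µM; growth read once vehicle control cultures reached saturation at 30 °C; 1 = growth at the plate median or of vehicle wells; lower values mean less growth of the strain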
recorded.conditions: S. cerevisiae deletion strains, growth OD, locus YJL095W, strain BCK1 (second series), stronger effect = lower value
Out of some 5,500 compounds screened, about 2,000 (36%) were called active. Inconclusive results (about 18%) are left out. Some of the results follow.
measured.parameter: normalized growth
No unit in the answer, please; the number alone is enough.

Q: Query normalized growth for CCn1nc(C(=O)O)c(=O)c2cc3c(cc21)OCO3
Ans: 1.02

Q: Query normalized growth for O=c1c(-c2ccc(O)cc2)coc2c(C3O[C@H](CO)[C@@H](O)[C@H](O)[C@H]3O)c(O)ccc12 (some centres not stated)
Ans: 0.987

Q: Query normalized growth for CN(C)CC[C@H](c1ccc(Cl)cc1)c1ccccn1
Ans: 0.997

Q: Query normalized growth for CC12CCC(=O)C=C1CCc1ccccc12 (configuration not stated)
Ans: 0.994

Q: Query normalized growth for O=c1c2cc(O)c(O)cc2oc2cc(O)c(C3O[C@H](CO)[C@H](O)[C@@H](O)[C@H]3O)c(O)c12 (some centres not stated)
Ans: 1.02

Q: Query normalized growth for CC(C)(C)NCC(O)COc1cccc2c1CCCC2=O (configuration not stated)
Ans: 0.988

Q: Query normalized growth for Cc1ccc(-c2nc3ccc(C)cn3c2CC(=O)N(C)C)cc1
Ans: 1.01

###

assay.details: chemical genetic growth profiling, strain panel (AID 1159580);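 further: tested at 20 µM; growth read once vehicle control cultures reached saturation at 30 °C; 1 = growth at the plate median or of vehicle wells; lower values mean less growth of the strain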
recorded.conditions: S. cerevisiae deletion strains, growth OD, locus YNL222W, strain SSU72, stronger effect = lower value
In all, about 5,500 compounds went through this assay and about 2,000 (36%) were called active. Roughly 18% stayed inconclusive and do not appear here. The list shows a part of the results.
measured.parameter: normalized growth
No unit in the answer, please; the number alone is enough.

Q: Query normalized growth for COc1ccc(N=C2SCC(c3ccc(C)cc3)=NN2CCO)cc1
Ans: 0.972

Q: Query normalized growth for O=C(Nc1cc2ccccc2s1)N1CCN(Cc2c(F)cccc2Cl)CC1
Ans: 0.988

Q: Query normalized growth for O=C(Nc1ccc(SC(F)(F)F)cc1)Nc1ccc(Oc2cccc(C(F)(F)F)c2)nc1
Ans: 0.991

Q: Query normalized growth for Cc1cc(Br)c(O)c(/C=N\NC(=S)NC(C)(C)C)c1
Ans: 0.988

Q: Query normalized growth for Cc1cc(-c2onc(C)c2C(=O)Sc2ccccc2)no1
Ans: 0.943

Q: Query normalized growth for O=c1cc(CSc2ccc(Cl)cc2)c2ccc(O)cc2o1
Ans: 0.944

Q: Query normalized growth for N/C(=N/OC(=O)c1cnn(-c2ccc([N+](=O)[O-])cc2)c1C(F)(F)F)c1ccc(Cl)cc1
Ans: 0.969

Q: Query normalized growth for O=S(=O)(Nc1ccccc1Sc1c(Cl)cncc1Cl)c1ccc(Cl)cc1
Ans: 0.994

Q: Query normalized growth for O=c1[nH][nH]c(=O)n1CCCc1cc2cccc3ccc4cccc1c4c32
Ans: 0.996

Q: Query normalized growth for C/C(=N/NC(N)=S)c1csc(-c2ccccc2)n1
Ans: 0.925

Q: Query normalized growth for COc1ccc(Br)c(C(=O)/C(C#N)=C/c2cccs2)c1
Ans: 0.861

Q: Query normalized growth for O=C(NC(=S)NNc1ncc(C(F)(F)F)cc1Cl)c1cccs1
Ans: 0.559

Q: Query normalized growth for CCOC(=O)NC(=S)Nc1ccc(C(C)(C)C)cc1NC(=S)NC(=O)OCC
Ans: 0.98

Q: Query normalized growth for N/C(=N/OC(=O)Nc1cccc(C(F)(F)F)c1)c1ccc(OC(F)(F)F)cc1
Ans: 0.973
